- test_system: Cathepsin D (Cat D) (Homo sapiens)
- Construct: Recombinant Cat D was expressed in CHO cells; made in house; host or cells: CHO cells
- Sequence (P07339 65-412, species assumed): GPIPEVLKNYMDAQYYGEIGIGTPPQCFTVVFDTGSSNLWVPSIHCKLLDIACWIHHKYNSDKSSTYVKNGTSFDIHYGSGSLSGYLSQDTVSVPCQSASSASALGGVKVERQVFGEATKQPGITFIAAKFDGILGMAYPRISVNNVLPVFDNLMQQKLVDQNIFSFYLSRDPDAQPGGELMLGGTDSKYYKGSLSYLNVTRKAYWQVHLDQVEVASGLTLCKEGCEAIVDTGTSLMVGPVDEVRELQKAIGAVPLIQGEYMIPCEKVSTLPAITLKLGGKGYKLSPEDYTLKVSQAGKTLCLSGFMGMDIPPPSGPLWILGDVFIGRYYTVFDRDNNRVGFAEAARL
- method_summary: In vitro enzymatic Cathepsin D (Cat D) FRET assay
- Format: biochemical
- test_context: read-out: CatD IC50
endpoint_label: IC50 (µM)
Answers are plain numbers, in µM.

[[record]]
molecule = "COCc1cc(Cl)cnc1C(=O)Nc1ccc(F)c([C@@]2(C)N=C(N)C(C)(C)S(=O)(=O)C2F)c1 (stereo partly shown)"
test_system = "Cathepsin D (Cat D) (Homo sapiens)"
units_symbol = "µM"
assay_value = 311

[[record]]
molecule = "COCc1cc(Cl)cnc1C(=O)Nc1ccc(F)c([C@]2(C)CS(=O)(=O)[C@@](C)(F)C(N)=N2)c1"
test_system = "Cathepsin D (Cat D) (Homo sapiens)"
units_symbol = "µM"
assay_value = 598

[[record]]
molecule = "CC1(C)C(N)=N[C@](C)(c2cc(Oc3cccc(C#N)n3)ccc2F)CS1(=O)=O"
test_system = "Cathepsin D (Cat D) (Homo sapiens)"
units_symbol = "µM"
assay_value = 12.9


Parameters: items (list). Returns: IC50 for each item.
1. CC1(C)C(N)=N[C@](CF)(c2cc(N)ccc2F)CS1(=O)=O
2. C[C@@]1(c2cc(NC(=O)c3ccc(Cl)cn3)ccc2F)CS(=O)(=O)C2(CC(F)(F)C2)C(N)=N1
3. Cc1ccc(C#N)c(Oc2ccc(F)c([C@]3(C)CS(=O)(=O)C(C)(C)C(N)=N3)c2)n1
4. Cc1cc(C)c(C#N)c(Oc2ccc(F)c([C@]3(C)CS(=O)(=O)C(C)(C)C(N)=N3)c2)n1

Ans:
1: 228; 2: 148; 3: 232; 4: 1690
